# target: T1, human serum albumin (human, UniProt P02768 25-609)
# T1 construct: immobilized on chips or coated on plates elsewhere; also called HSA; HuSA
# run_description: SPR, albumin immobilized, Adnectin 250 nM
readout_kind: koff (s⁻¹)
Hi! Could you send only the number? It should be in s⁻¹, unit omitted.

## Input Check the records and state koff for 5963_E02.PS5-2 (designed binder) MGVSDVPRDLEVVAATPTSLLISWDAPAVTVRYYRITYGREVQKYSDLGPLYIYQEFTVPGSKSCATISGLKPGVDYTITVYAVTGSGESPASSKPISINYRTPHHHHHH
## Output 0.000228

## Input # return recorded koff for input 5916_E03.PS5-2 (designed binder) MGVSDVPRDLEVVAATPTSLLISWDAPAVTVRYYRITYGREVQKYSDLGPLYIYQEFTVPGSKSTATISGLKPGVDYTITVYAVTGSGESPASSKPISINYRTPCHHHHHH
## Output 0.000211

## Input Complete the entry with koff for 5916_A04.PS5-2 (designed binder) MGVSDVPRDLEVVAATPTSLLISWDAPAVTVRYYRITYGREVQKYSDLGPLYIYQEFTVPGSKSTATISGLKPGVDYTITVYAVTGSGESPASSKPISINYRTPEDEDGCHHHHHH
## Output 0.000148

## Input Quickly give me recorded koff for 5963_F03.PS5-2 (designed binder) MGVSDVPRDLEVVAATPTSLLISWDAPCVTVRYYRITYGREVQKYSDLGPLYIYQEFTVPGSKSTATISGLKPGVDYTITVYAVTGSGESPASSKPISINYRTPHHHHHH
## Output 0.000251

## Input In one line, give reported koff of the entry 5963_A02.PS5-2 (designed binder) MGCSTSGVSDVPRDLEVVAATPTSLLISWDAPAVTVRYYRITYGREVQKYSDLGPLYIYQEFTVPGSKSTATISGLKPGVDYTITVYAVTGSGESPASSKPISINYRTPHHHHHH .
## Output 0.000253

## Input Hello, please tell me recorded koff for this one: 5963_D01.PS5-2 (designed binder) MGVSDVPRDLEVVCATPTSLLISWDAPAVTVRYYRITYGREVQKYSDLGPLYIYQEFTVPGSKSTATISGLKPGVDYTITVYAVTGSGESPASSKPISINYRTPHHHHHH
## Output 0.000247

## Input Hello, please tell me recorded koff for this one: PKE2 Adnectin 2629_E06 (designed binder, 10Fn3 domain with modified CD loop; the entry includes the His6 tail; also called ADX_2629_E06) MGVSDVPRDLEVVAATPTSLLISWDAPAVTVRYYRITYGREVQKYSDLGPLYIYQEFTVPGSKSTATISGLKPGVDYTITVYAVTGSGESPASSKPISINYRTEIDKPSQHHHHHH
## Output 0.000169

## Input Supply koff value. Item: 5963_E01.PS5-2 (designed binder) MGVSDVPRDLEVVAATPTSLLISWDAPAVTVRYYRITYGREVQKYSDLGPLYIYQEFTVPGSKSTACISGLKPGVDYTITVYAVTGSGESPASSKPISINYRTPHHHHHH
## Output 0.00025
